Each record here notes measured GI50.
- System: MOLT-4
- method summary: NCI tumour cell line growth inhibition, 48 h
The source made the active and inactive calls. Cut-off read from the data, not from the text of the source: active = GI50 up to about 1.1 µM and inactive = higher.

Input: Return reported GI50; argument: CC12CC[C@@H](C(C)(C)O)C1[C@@H](O)CC1(C)C2CCC2[C@@]3(C)CC[C@H](O)C(C)(C)C3C(O)C[C@]21C (some centres not stated)
Output: 4.07 µM (inactive)

Input: Now try Cc1ccc2c(c1C)C(=O)C1(Cc3cc4c(cc3C1=O)CCC4)C2 (configuration not stated) .
Output: > 100 µM (inactive)

====

- Tested on: SF-539
- method summary: NCI tumour cell line growth inhibition, 48 h
The source made the active and inactive calls. Rule as the data show it: active = GI50 up to about 1.1 µM and inactive = higher.
Returns: one label drawn from 1.0 (active), 0.0 (inactive)

Input: Entry `CC(C)c1cccc(C(=O)NCCN(C)C)c1[N+](=O)[O-]` : call = ?
Output: 0.0

Taken from ChEMBL document CHEMBL1201862.
